tested on: Strongylocentrotus purpuratus; test: Agonist activity at NAADP receptor in sea urchin egg homogenate assessed as fold increase in EC50 for induction of Ca2+ release relative to NAADP; assay type: functional, tissue-based
measured.quantity: fold change (FC)

1: CCc1cc(C(=O)[O-])c[n+]([C@H]2O[C@@H](COP(=O)(O)OP(=O)(O)OC[C@H]3O[C@@H](n4cnc5c(N)ncnc54)[C@H](OP(=O)(O)O)[C@@H]3O)[C@H](O)[C@@H]2O)c1
2: [N-]=[N+]=Nc1cc(C(=O)[O-])c[n+]([C@H]2O[C@@H](COP(=O)(O)OP(=O)(O)OC[C@H]3O[C@@H](n4cnc5c(N)ncnc54)[C@H](OP(=O)(O)O)[C@@H]3O)[C@H](O)[C@@H]2O)c1
3: Cc1cc(C(=O)[O-])c[n+]([C@H]2O[C@@H](COP(=O)(O)OP(=O)(O)OC[C@H]3O[C@@H](n4cnc5c(N)ncnc54)[C@H](OP(=O)(O)O)[C@@H]3O)[C@H](O)[C@@H]2O)c1
Sort the listed compounds above so the one with the largest fold change (FC) comes first and the smallest comes last. Lab note: record answer as labels in requested order.
2, 1, 3
